Catalogue of activity at 1 µM readings, one per entry.
# System: P. berghei-ANKA-GFP-LucCON liver stage parasites in HepG2-A16-CD81EGFP cells
# assay.name: P. berghei liver stage Pb-Luc assay, Method 1 (UCSD, 1536-well); as to Pb-Luc signal, 1 uM, repeat 2: reference of the scale not given here
# Type: cell-based, Plasmodium berghei
# cond: Plasmodium berghei, 48 h, nominal 1 uM (10 mM stock); […] for 15 mM, 1.2 uM for 12 mM, 2 uM for 20 mM stock; average of 2 wells, 1536-well plate; repeat 2; read-out: Pb-Luc signal, 1 uM, repeat 2
measure.name: activity at 1 µM (%)

>  <molecule>
COc1ccccc1NC(=O)Cn1cccc1-c1nc(-c2ccc(F)cc2)no1 [NCGC00445349-01]

>  <measure.name>
activity at 1 µM

>  <result.value>
112

$$$$
>  <molecule>
Cc1ccc([S+](=O)([O-])N2CCC(OC3CCN(Cc4ccccc4)CC3)CC2)c(C)c1 [NCGC00444944-01]

>  <measure.name>
activity at 1 µM

>  <result.value>
74

$$$$
>  <molecule>
O=C(Nc1ccc2c(N3CCCC3)ncnc2c1)c1cccc(F)c1 [NCGC00425501-01]

>  <measure.name>
activity at 1 µM

>  <result.value>
101

$$$$
>  <molecule>
COc1ccccc1Nc1cnc2ccc(-c3ccc(OC)c(OC)c3)nn12 [NCGC00412573-01]

>  <measure.name>
activity at 1 µM

>  <result.value>
51.2

$$$$
>  <molecule>
O=C(Nc1ccc2c(N3CCOCC3)ncnc2c1)c1ccc(Br)o1 [NCGC00425547-01]

>  <measure.name>
activity at 1 µM

>  <result.value>
99.1

$$$$
>  <molecule>
Cc1nn2c(c1-c1ccccc1-c1ccccc1)N(CCC(C)C)CCC2 [NCGC00420437-01]

>  <measure.name>
activity at 1 µM

>  <result.value>
20.4

$$$$
>  <molecule>
COc1ccc(OC)c(NC(=O)c2ccc3c(c2)N([S+](=O)([O-])c2ccccc2)CC3)c1 [NCGC00430430-01]

>  <measure.name>
activity at 1 µM

>  <result.value>
108

$$$$
>  <molecule>
COc1cc2c(cc1OCc1ccccc1)N(C(=O)c1cc3ccccc3[nH]1)CC21CCN(C)CC1 [NCGC00419851-01]

>  <measure.name>
activity at 1 µM

>  <result.value>
89.6

$$$$

---

# Test system: P. falciparum Dd2 Cytb G131S
# assay.name: SYBR Green ABS proliferation assay, NCGC00374598 selected clone C11
# Type: cell-based, Plasmodium falciparum
# cond: Plasmodium falciparum, DD2, […]; averaged from three independent replicates; top concentration 29 µM; read-out: Average AC50 (Log[M]), NCGC00374598 clone C11 (Cytb G131S) (converted)

>  <compound>
CCCN1C(CC(C)C)=N[S+](=O)([O-])c2cc(NC(=O)c3ccc(-c4ccccc4)cc3)ccc21 [NCGC00521159-01]

>  <AC50 / M>
7.1e-06

$$$$
>  <compound>
CCCN1C(CC(C)C)=N[S+](=O)([O-])c2cc(NC(=O)C3CCN(C)CC3)ccc21 [NCGC00521111-01]

>  <AC50 / M>
1.17e-06

$$$$
>  <compound>
CCCN1C(CC(C)C)=N[S+](=O)([O-])c2cc(N[S+](=O)([O-])c3cc4ccccc4s3)ccc21 [NCGC00521156-01]

>  <AC50 / M>
1e-06

$$$$
>  <compound>
CCCN1C(CC(C)C)=N[S+](=O)([O-])c2cc(NC(=O)c3cccnn3)ccc21 [NCGC00521144-01]

>  <AC50 / M>
2e-05

$$$$
>  <compound>
CCCN1C(C)=N[S+](=O)([O-])c2cc(NC(=O)c3ccc(F)cc3)ccc21 [NCGC00522607-01]

>  <AC50 / M>
1.26e-06

$$$$

---

# assay.name: in vitro
# cond: human, HepG2-A16-CD81EGFP cells, uninfected
Catalogue of viability at 48 h, 3 µM readings, one per entry.

>  <compound>
COc1ccc(CNCc2cc3c(C(C)(C)C)nn(-c4ccccc4)c3[nH]c2=O)cc1

>  <viability at 48 h, 3 µM (%)>
109

$$$$
>  <compound>
Cc1cc(Nc2cccc(F)c2)nc(NCc2ccccc2)n1

>  <viability at 48 h, 3 µM (%)>
87

$$$$
>  <compound>
Br.CCOC(=O)c1c(CSC(=N)N)n(-c2ccc(Br)cc2)c2cc(Br)c(OC(C)=O)cc12

>  <viability at 48 h, 3 µM (%)>
104

$$$$
>  <compound>
CC(C)(C)C1CCc2[nH]c3ccccc3c(=O)c2C1 (stereo not drawn)

>  <viability at 48 h, 3 µM (%)>
88

$$$$
>  <compound>
C/C(=N\NC(=O)c1ccccc1OCc1ccc(F)cc1)c1ccccn1

>  <viability at 48 h, 3 µM (%)>
79

$$$$
>  <compound>
Nc1cc2ccncc2c2ccccc12

>  <viability at 48 h, 3 µM (%)>
92

$$$$
>  <compound>
O=C(c1ccc([N+](=O)[O-])o1)N1CCN(c2nc3c(F)cc(F)cc3s2)CC1

>  <viability at 48 h, 3 µM (%)>
108

$$$$
>  <compound>
CCC(C)c1ccc(O)c(NC(=O)c2cncc(Br)c2)c1 (stereo not drawn)

>  <viability at 48 h, 3 µM (%)>
103

$$$$
>  <compound>
COc1cnc(-c2ccccn2)nc1Sc1c(Cl)cccc1Cl

>  <viability at 48 h, 3 µM (%)>
99

$$$$
>  <compound>
CCSc1nc2sc3c(c2c(=O)n1-c1ccccc1)CCN(C)C3

>  <viability at 48 h, 3 µM (%)>
103

$$$$
>  <compound>
CCCc1cc(=O)oc2cc(C)cc(OCC(=O)NC3CC3)c12

>  <viability at 48 h, 3 µM (%)>
104

$$$$
>  <compound>
COc1ccc(C2c3ccc4ccccc4c3Oc3ncn(CCCN(C)C)c(=N)c32)cc1 (stereo not drawn)

>  <viability at 48 h, 3 µM (%)>
103

$$$$
>  <compound>
CCC(O)(CC)C(=O)NN(C(=O)Nc1csc2c1CCCC2)c1ccccc1

>  <viability at 48 h, 3 µM (%)>
95

$$$$
>  <compound>
CCCCN(C)CCNC(=O)c1cc2c(-c3cccc(OC)c3)nn(C)c2s1

>  <viability at 48 h, 3 µM (%)>
85

$$$$
>  <compound>
N#Cc1nc(Nc2cc(F)cc(F)c2)c2ncn(CC(F)F)c2n1

>  <viability at 48 h, 3 µM (%)>
87

$$$$
>  <compound>
O=S(=O)(c1ccc2ccccc2c1)N1CCN(/C(S)=N/c2ccccc2F)CC1

>  <viability at 48 h, 3 µM (%)>
102

$$$$
>  <compound>
O=C1c2ccccc2C2=Nc3ccccc3SC(c3ccc(Cl)cc3)C12 (stereo not drawn)

>  <viability at 48 h, 3 µM (%)>
85

$$$$
>  <compound>
Cc1ccc(C(=O)c2oc3ccccc3c2NC(=O)c2cc(-c3cc(C)ccc3O)[nH]n2)cc1

>  <viability at 48 h, 3 µM (%)>
102

$$$$

---

# Test system: P. berghei-ANKA-GFP-LucCON liver stage parasites in HepG2-A16-CD81EGFP cells
# assay.name: P. berghei liver stage Pb-Luc assay, Method 1 (UCSD, 1536-well)
# Format: cell-based, Plasmodium berghei
# cond: P. berghei liver stage, 3 µM dose, averaged response (percent)
Label rule, in plain words: Average P. berghei 3 µM response( %) of 70% and up is class 1, under 70% is class 0.

>  <molecule>
O=C(/C=C/c1ccco1)NC(=S)Nc1ccccc1N1CCCC1

>  <classification>
class 1

$$$$
>  <molecule>
Cc1ccc(C)c(-n2c(-c3ccc(Br)cc3)csc2=NC(=O)c2ccccc2F)c1

>  <classification>
class 0

$$$$
>  <molecule>
Cc1ccccc1NC(=O)Nc1ccc2nc(N3CCN(C)CC3)cc(C)c2c1

>  <classification>
class 1

$$$$
>  <molecule>
COc1ccc(Nc2cc(C)c3ccc(O)cc3n2)cc1

>  <classification>
class 1

$$$$
>  <molecule>
CCC(CC)c1cc([C@H]2CN3CC[C@H]2C[C@@H]3CNC(C)=O)nc(-c2ccncc2)n1

>  <classification>
class 0

$$$$
>  <molecule>
Cc1cc(Nc2nc3ccccc3nc2Cl)n(-c2ccccc2C)n1

>  <classification>
class 1

$$$$
>  <molecule>
NS(=O)(=O)c1ccc(N/N=C/c2cn(-c3ccccc3)nc2-c2cccs2)cc1

>  <classification>
class 0

$$$$
>  <molecule>
COc1ccc(-c2c3c(nc4sc(C(=O)Nc5ccc(Cl)cc5)c(N)c24)CC(C)(C)CC3=O)cc1

>  <classification>
class 1

$$$$
>  <molecule>
CCN(CC)CCN1C(=O)c2ccccc2NC1c1ccc(N(C)C)cc1 (stereo not drawn)

>  <classification>
class 1

$$$$
>  <molecule>
Cc1ccc(/C=N/NC(=O)c2cc3ccccc3cc2O)o1

>  <classification>
class 0

$$$$
>  <molecule>
O=C(c1ccc([N+](=O)[O-])o1)N1CCN(c2nc3c(F)cc(F)cc3s2)CC1

>  <classification>
class 0

$$$$
>  <molecule>
CCOc1ccc(-n2c(SCC(=O)OC)nc3sc4c(c3c2=O)CCN(C)C4)cc1

>  <classification>
class 1

$$$$
>  <molecule>
COc1ccc(-c2noc(-c3cccn3CC(=O)Nc3ccccc3)n2)cc1F

>  <classification>
class 1

$$$$
>  <molecule>
CCOC(=O)C1=C(C)N=c2s/c(=C/c3ccc(OCC(=O)O)cc3)c(=O)n2C1c1cc(OC)c(OC)c(OC)c1 (stereo not drawn)

>  <classification>
class 1

$$$$
>  <molecule>
Cc1cc(C)c(-c2csc(NC(=O)CCCc3nc4ccccc4c(=O)[nH]3)n2)c(C)c1

>  <classification>
class 0

$$$$
>  <molecule>
Br.CCOC(=O)c1c(CSC(=N)N)n(-c2ccc(Br)cc2)c2cc(Br)c(OC(C)=O)cc12

>  <classification>
class 1

$$$$
>  <molecule>
O=C(Nc1c(C(=O)c2ccccc2)oc2ccccc12)c1cc(-c2ccccc2O)n[nH]1

>  <classification>
class 1

$$$$
